Settings: in 1,4-dioxane, 305.65 K
Readout name: solubility (mole fraction)
Answer using only a numeral; do not append any unit.

Problem: For the compound CC(C)(C)[C@H](O)[C@H](Cc1ccc(Cl)cc1)n1cncn1 (racemic) , give its measured solubility (mole fraction) value.
Solution: 0.0412

---

Settings: in 1,4-dioxane, 298.15 K
Readout name: solubility (mole fraction)
Answer using only a numeral; do not append any unit.

Problem: For the molecule CC(C)(C)[C@H](O)[C@H](Cc1ccc(Cl)cc1)n1cncn1 (racemic) , give its measured solubility (mole fraction) value.
Solution: 0.0324

---

Settings: in 1,4-dioxane, 293.15 K
Readout name: solubility (mole fraction)
Answer using only a numeral; do not append any unit.

Problem: For the compound CC(C)(C)[C@H](O)[C@H](Cc1ccc(Cl)cc1)n1cncn1 (racemic) , give its measured solubility (mole fraction) value.
Solution: 0.0271

---

Settings: in n-butanol, 295.65 K
Readout name: solubility (mole fraction)

Problem: For the compound CC(C)(C)[C@H](O)[C@H](Cc1ccc(Cl)cc1)n1cncn1 (racemic) , give its measured solubility (mole fraction) value.
Solution: 0.0211

---

Settings: in n-propanol, 315.65 K
Readout name: solubility (mole fraction)

Problem: For the compound CC(C)(C)[C@H](O)[C@H](Cc1ccc(Cl)cc1)n1cncn1 (racemic) , give its measured solubility (mole fraction) value.
Solution: 0.0278

---

Settings: in ethyl acetate, 313.15 K
Readout name: solubility (mole fraction)
Answer using only a numeral; do not append any unit.

Problem: For the compound CC(C)(C)[C@H](O)[C@H](Cc1ccc(Cl)cc1)n1cncn1 (racemic) , give its measured solubility (mole fraction) value.
Solution: 0.0444

---

Settings: in ethanol, 278.15 K
Readout name: solubility (mole fraction)
Answer using only a numeral; do not append any unit.

Problem: For the compound CC(C)(C)[C@H](O)[C@H](Cc1ccc(Cl)cc1)n1cncn1 (racemic) , give its measured solubility (mole fraction) value.
Solution: 0.00749

---

Settings: in ethanol, 285.65 K
Readout name: solubility (mole fraction)

Problem: For the compound CC(C)(C)[C@H](O)[C@H](Cc1ccc(Cl)cc1)n1cncn1 (racemic) , give its measured solubility (mole fraction) value.
Solution: 0.00979

---

Settings: in n-propanol, 283.15 K
Readout name: solubility (mole fraction)
Answer using only a numeral; do not append any unit.

Problem: For the compound CC(C)(C)[C@H](O)[C@H](Cc1ccc(Cl)cc1)n1cncn1 (racemic) , give its measured solubility (mole fraction) value.
Solution: 0.0139

---

Settings: in n-butanol, 285.65 K
Readout name: solubility (mole fraction)

Problem: For the molecule CC(C)(C)[C@H](O)[C@H](Cc1ccc(Cl)cc1)n1cncn1 (racemic) , give its measured solubility (mole fraction) value.
Solution: 0.0162

---

Settings: in ethanol, 308.15 K
Readout name: solubility (mole fraction)
Answer using only a numeral; do not append any unit.

Problem: For the compound CC(C)(C)[C@H](O)[C@H](Cc1ccc(Cl)cc1)n1cncn1 (racemic) , give its measured solubility (mole fraction) value.
Solution: 0.02

---

Settings: in ethanol, 318.15 K
Readout name: solubility (mole fraction)

Problem: For the molecule CC(C)(C)[C@H](O)[C@H](Cc1ccc(Cl)cc1)n1cncn1 (racemic) , give its measured solubility (mole fraction) value.
Solution: 0.0265

---

Settings: in n-propanol, 310.65 K
Readout name: solubility (mole fraction)
Answer using only a numeral; do not append any unit.

Problem: For the compound CC(C)(C)[C@H](O)[C@H](Cc1ccc(Cl)cc1)n1cncn1 (racemic) , give its measured solubility (mole fraction) value.
Solution: 0.0253

---

Settings: in isopropanol, 310.65 K
Readout name: solubility (mole fraction)
Answer using only a numeral; do not append any unit.

Problem: For the compound CC(C)(C)[C@H](O)[C@H](Cc1ccc(Cl)cc1)n1cncn1 (racemic) , give its measured solubility (mole fraction) value.
Solution: 0.0197

---

Settings: in ethyl acetate, 295.65 K
Readout name: solubility (mole fraction)
Answer using only a numeral; do not append any unit.

Problem: For the compound CC(C)(C)[C@H](O)[C@H](Cc1ccc(Cl)cc1)n1cncn1 (racemic) , give its measured solubility (mole fraction) value.
Solution: 0.0201

---

Settings: in n-butanol, 290.65 K
Readout name: solubility (mole fraction)
Answer using only a numeral; do not append any unit.

Problem: For the compound CC(C)(C)[C@H](O)[C@H](Cc1ccc(Cl)cc1)n1cncn1 (racemic) , give its measured solubility (mole fraction) value.
Solution: 0.0184

---

Settings: in acetone, 298.15 K
Readout name: solubility (mole fraction)
Answer using only a numeral; do not append any unit.

Problem: For the molecule CC(C)(C)[C@H](O)[C@H](Cc1ccc(Cl)cc1)n1cncn1 (racemic) , give its measured solubility (mole fraction) value.
Solution: 0.0239

---

Settings: in toluene, 318.15 K
Readout name: solubility (mole fraction)
Answer using only a numeral; do not append any unit.

Problem: For the compound CC(C)(C)[C@H](O)[C@H](Cc1ccc(Cl)cc1)n1cncn1 (racemic) , give its measured solubility (mole fraction) value.
Solution: 0.061

---

Settings: in n-butanol, 278.15 K
Readout name: solubility (mole fraction)

Problem: For the compound CC(C)(C)[C@H](O)[C@H](Cc1ccc(Cl)cc1)n1cncn1 (racemic) , give its measured solubility (mole fraction) value.
Solution: 0.0134

---

Settings: in ethanol, 288.15 K
Readout name: solubility (mole fraction)

Problem: For the compound CC(C)(C)[C@H](O)[C@H](Cc1ccc(Cl)cc1)n1cncn1 (racemic) , give its measured solubility (mole fraction) value.
Solution: 0.0107

---

Settings: in n-butanol, 315.65 K
Readout name: solubility (mole fraction)
Answer using only a numeral; do not append any unit.

Problem: For the molecule CC(C)(C)[C@H](O)[C@H](Cc1ccc(Cl)cc1)n1cncn1 (racemic) , give its measured solubility (mole fraction) value.
Solution: 0.0324

---

Settings: in n-butanol, 313.15 K
Readout name: solubility (mole fraction)
Answer using only a numeral; do not append any unit.

Problem: For the compound CC(C)(C)[C@H](O)[C@H](Cc1ccc(Cl)cc1)n1cncn1 (racemic) , give its measured solubility (mole fraction) value.
Solution: 0.0308

---

Settings: in acetonitrile, 288.15 K
Readout name: solubility (mole fraction)
Answer using only a numeral; do not append any unit.

Problem: For the compound CC(C)(C)[C@H](O)[C@H](Cc1ccc(Cl)cc1)n1cncn1 (racemic) , give its measured solubility (mole fraction) value.
Solution: 0.00366

---

Settings: in isopropanol, 290.65 K
Readout name: solubility (mole fraction)
Answer using only a numeral; do not append any unit.

Problem: For the compound CC(C)(C)[C@H](O)[C@H](Cc1ccc(Cl)cc1)n1cncn1 (racemic) , give its measured solubility (mole fraction) value.
Solution: 0.0108

---

Settings: in n-propanol, 278.15 K
Readout name: solubility (mole fraction)
Answer using only a numeral; do not append any unit.

Problem: For the molecule CC(C)(C)[C@H](O)[C@H](Cc1ccc(Cl)cc1)n1cncn1 (racemic) , give its measured solubility (mole fraction) value.
Solution: 0.0124

---

Settings: in toluene, 310.65 K
Readout name: solubility (mole fraction)
Answer using only a numeral; do not append any unit.

Problem: For the compound CC(C)(C)[C@H](O)[C@H](Cc1ccc(Cl)cc1)n1cncn1 (racemic) , give its measured solubility (mole fraction) value.
Solution: 0.057

---

Settings: in isopropanol, 300.65 K
Readout name: solubility (mole fraction)

Problem: For the compound CC(C)(C)[C@H](O)[C@H](Cc1ccc(Cl)cc1)n1cncn1 (racemic) , give its measured solubility (mole fraction) value.
Solution: 0.0149

---

Settings: in acetone, 300.65 K
Readout name: solubility (mole fraction)
Answer using only a numeral; do not append any unit.

Problem: For the molecule CC(C)(C)[C@H](O)[C@H](Cc1ccc(Cl)cc1)n1cncn1 (racemic) , give its measured solubility (mole fraction) value.
Solution: 0.0253

---

Settings: in ethyl acetate, 293.15 K
Readout name: solubility (mole fraction)
Answer using only a numeral; do not append any unit.

Problem: For the compound CC(C)(C)[C@H](O)[C@H](Cc1ccc(Cl)cc1)n1cncn1 (racemic) , give its measured solubility (mole fraction) value.
Solution: 0.0175

---

Settings: in ethanol, 293.15 K
Readout name: solubility (mole fraction)
Answer using only a numeral; do not append any unit.

Problem: For the compound CC(C)(C)[C@H](O)[C@H](Cc1ccc(Cl)cc1)n1cncn1 (racemic) , give its measured solubility (mole fraction) value.
Solution: 0.0128

---

Settings: in toluene, 308.15 K
Readout name: solubility (mole fraction)
Answer using only a numeral; do not append any unit.

Problem: For the compound CC(C)(C)[C@H](O)[C@H](Cc1ccc(Cl)cc1)n1cncn1 (racemic) , give its measured solubility (mole fraction) value.
Solution: 0.0557

---

Settings: in ethanol, 303.15 K
Readout name: solubility (mole fraction)
Answer using only a numeral; do not append any unit.

Problem: For the compound CC(C)(C)[C@H](O)[C@H](Cc1ccc(Cl)cc1)n1cncn1 (racemic) , give its measured solubility (mole fraction) value.
Solution: 0.0173
